Tested on: Tyrosine-protein kinase ABL1 (Homo sapiens), P00519 [E255K]
Sequence (P00519 whole entry E255K): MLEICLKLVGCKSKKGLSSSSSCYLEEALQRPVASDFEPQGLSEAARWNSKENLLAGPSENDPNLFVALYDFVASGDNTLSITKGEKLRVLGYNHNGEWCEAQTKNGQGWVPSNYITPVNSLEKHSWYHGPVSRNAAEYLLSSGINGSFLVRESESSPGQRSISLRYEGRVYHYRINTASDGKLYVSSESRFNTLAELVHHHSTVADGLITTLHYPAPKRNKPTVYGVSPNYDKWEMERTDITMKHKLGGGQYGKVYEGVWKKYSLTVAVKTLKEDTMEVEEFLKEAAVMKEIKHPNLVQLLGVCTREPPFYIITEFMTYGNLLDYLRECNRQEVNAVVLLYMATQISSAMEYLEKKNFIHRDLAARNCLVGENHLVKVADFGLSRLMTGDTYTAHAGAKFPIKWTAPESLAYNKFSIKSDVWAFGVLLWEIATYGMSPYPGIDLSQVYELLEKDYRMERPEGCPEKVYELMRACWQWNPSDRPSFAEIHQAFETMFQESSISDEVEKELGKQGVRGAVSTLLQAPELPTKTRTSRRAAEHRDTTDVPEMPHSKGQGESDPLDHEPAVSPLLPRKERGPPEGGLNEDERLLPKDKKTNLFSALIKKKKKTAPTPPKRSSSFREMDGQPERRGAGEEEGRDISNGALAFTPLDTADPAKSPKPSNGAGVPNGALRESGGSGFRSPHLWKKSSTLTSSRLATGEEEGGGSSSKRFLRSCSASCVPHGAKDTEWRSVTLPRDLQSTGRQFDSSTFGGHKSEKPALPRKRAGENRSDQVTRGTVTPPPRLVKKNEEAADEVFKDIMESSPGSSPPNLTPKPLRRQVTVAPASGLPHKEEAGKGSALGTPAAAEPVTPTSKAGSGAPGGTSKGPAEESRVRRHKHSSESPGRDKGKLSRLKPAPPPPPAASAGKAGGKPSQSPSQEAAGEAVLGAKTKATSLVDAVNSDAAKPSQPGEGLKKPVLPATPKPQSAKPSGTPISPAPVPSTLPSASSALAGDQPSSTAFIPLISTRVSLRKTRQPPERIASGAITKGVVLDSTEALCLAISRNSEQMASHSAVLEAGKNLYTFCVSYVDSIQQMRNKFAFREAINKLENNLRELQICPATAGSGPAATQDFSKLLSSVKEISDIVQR
ASSAY SETUP: at 1 µM
PARAMETER MEASURED: inhibition (%)
Your answer should be a plain number; it is taken to be in %.

A selection of reference data follows.
molecule_smiles=COc1cc(Nc2nccc(Nc3ccc4c(C)n[nH]c4c3)n2)cc(OC)c1OC parameter_measured=inhibition unit=% readout_value=67.2
molecule_smiles=COc1ccc2[nH]c3c4[nH]c5ccc(OC)cc5c4c4c(c3c2c1)C(=O)NC4=O parameter_measured=inhibition unit=% readout_value=36.1

Reported inhibition for CC(C)COC(=O)c1ccc2c(c1)/C(=C/Nc1ccc(S(N)(=O)=O)cc1)C(=O)N2 : what is it?
21.7

###

STUDY SYSTEM: Mitogen-activated protein kinase 14 (Homo sapiens) (UniProt Q16539);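 also: values are mean percent inhibition of p38α kinase from the GSK PKIS published kinase inhibitor set screen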
Sequence (Q16539 whole entry): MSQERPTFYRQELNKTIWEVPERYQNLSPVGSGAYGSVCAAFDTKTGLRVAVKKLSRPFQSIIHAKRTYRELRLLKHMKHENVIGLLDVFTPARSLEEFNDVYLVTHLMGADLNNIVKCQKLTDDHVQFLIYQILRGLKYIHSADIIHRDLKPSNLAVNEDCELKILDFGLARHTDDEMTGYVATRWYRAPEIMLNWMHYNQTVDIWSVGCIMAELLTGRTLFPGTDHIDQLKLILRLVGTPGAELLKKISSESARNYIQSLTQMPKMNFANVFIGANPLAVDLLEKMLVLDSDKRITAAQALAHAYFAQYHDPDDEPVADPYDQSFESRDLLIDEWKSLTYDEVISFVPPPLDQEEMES
ASSAY SETUP: at 0.1 µM
PARAMETER MEASURED: inhibition
Answer with the figure and its unit, nothing else.

A selection of reference data follows.
molecule_smiles=CCCN1CCC(c2ccc(Nc3nc(Nc4cc(F)ccc4C(N)=O)c4cc[nH]c4n3)c(OC)c2)CC1 study_system="Mitogen-activated protein kinase 14 (Homo sapiens) (UniProt Q16539)" readout_value=1.69%
molecule_smiles=CCCN(CCS(C)(=O)=O)Cc1ccc(-c2ccc3ncnc(Nc4ccc(OCc5cccc(F)c5)c(Cl)c4)c3c2)o1 study_system="Mitogen-activated protein kinase 14 (Homo sapiens) (UniProt Q16539)" readout_value=10.4%
molecule_smiles=CS(=O)(=O)CCNCc1ccc(-c2ccc3ncnc(Nc4ccc(OCc5ccccc5)c(C(F)(F)F)c4)c3c2)o1 study_system="Mitogen-activated protein kinase 14 (Homo sapiens) (UniProt Q16539)" readout_value=5.55%
molecule_smiles=Fc1cccc(COc2ccc(Nc3ncnc4sc(-c5ccco5)cc34)cc2Cl)c1 study_system="Mitogen-activated protein kinase 14 (Homo sapiens) (UniProt Q16539)" readout_value=7.31%
molecule_smiles=COc1ccc(-c2cc3c(N)ncnc3o2)cc1 study_system="Mitogen-activated protein kinase 14 (Homo sapiens) (UniProt Q16539)" readout_value=-1.46%

Next up:
Reported inhibition for O=C(O[C@H]1CN[C@H](C#Cc2cc3ncnc(Nc4ccc(Cc5ccccc5)cc4)c3s2)C1)N1CCOCC1 : what is it?
4.54%

###

STUDY SYSTEM: Activated CDC42 kinase 1 (Homo sapiens)
ASSAY SETUP: at 1 µM
Description: GSK_PKIS: TNK2 mean inhibition at 1 uM [Nanosyn]
PARAMETER MEASURED: inhibition (%)
Your answer should be a plain number; it is taken to be in %.

molecule_smiles=Fc1ccc(-c2cc(-c3c[nH]nc3-c3ccccn3)ccn2)cc1 study_system="Activated CDC42 kinase 1 (Homo sapiens)" parameter_measured=inhibition readout_value=1.26
molecule_smiles=Cc1cccc2c1NC(=O)/C2=N\Nc1ccc(S(N)(=O)=O)cc1 study_system="Activated CDC42 kinase 1 (Homo sapiens)" parameter_measured=inhibition readout_value=1.59
molecule_smiles=CCn1c(-c2nonc2N)nc2ccccc21 study_system="Activated CDC42 kinase 1 (Homo sapiens)" parameter_measured=inhibition readout_value=2.47
molecule_smiles=c1cc(-c2cnn3nc(N4CCOCC4)ccc23)nc(NC2CC2)n1 study_system="Activated CDC42 kinase 1 (Homo sapiens)" parameter_measured=inhibition readout_value=0.94
molecule_smiles=COc1ccc(-c2cc3c(N)ncnc3o2)cc1 study_system="Activated CDC42 kinase 1 (Homo sapiens)" parameter_measured=inhibition readout_value=1.96
molecule_smiles=COC(=O)Nc1nc2ccc(Oc3ccc(NC(=O)Nc4cccc(Cl)c4)cc3)cc2[nH]1 study_system="Activated CDC42 kinase 1 (Homo sapiens)" parameter_measured=inhibition readout_value=-0.32
molecule_smiles=CCCN1CCC(c2ccc(Nc3nc(Nc4cc(F)ccc4C(N)=O)c4cc[nH]c4n3)c(OC)c2)CC1 study_system="Activated CDC42 kinase 1 (Homo sapiens)" parameter_measured=inhibition readout_value=44.3
molecule_smiles=COc1cc2c(cc1Nc1nc(Nc3ccsc3C(N)=O)c3cc[nH]c3n1)N(C(=O)CN(C)C)CCC2(C)C study_system="Activated CDC42 kinase 1 (Homo sapiens)" parameter_measured=inhibition readout_value=43.5
molecule_smiles=COc1cc(Nc2nccc(Nc3ccc4c(C)n[nH]c4c3)n2)cc(OC)c1OC study_system="Activated CDC42 kinase 1 (Homo sapiens)" parameter_measured=inhibition readout_value=52.9

Next up:
Reported inhibition for CCNC(=O)O[C@H]1CN[C@H](C#Cc2cc3ncnc(Nc4ccc(OCc5cccc(F)c5)c(Cl)c4)c3s2)C1 : what is it?
1.05
